Molecular target: Human M4 (Homo sapiens, UniProt P08173)
Construct: expressed in transfected cells
Sequence (P08173 1-479): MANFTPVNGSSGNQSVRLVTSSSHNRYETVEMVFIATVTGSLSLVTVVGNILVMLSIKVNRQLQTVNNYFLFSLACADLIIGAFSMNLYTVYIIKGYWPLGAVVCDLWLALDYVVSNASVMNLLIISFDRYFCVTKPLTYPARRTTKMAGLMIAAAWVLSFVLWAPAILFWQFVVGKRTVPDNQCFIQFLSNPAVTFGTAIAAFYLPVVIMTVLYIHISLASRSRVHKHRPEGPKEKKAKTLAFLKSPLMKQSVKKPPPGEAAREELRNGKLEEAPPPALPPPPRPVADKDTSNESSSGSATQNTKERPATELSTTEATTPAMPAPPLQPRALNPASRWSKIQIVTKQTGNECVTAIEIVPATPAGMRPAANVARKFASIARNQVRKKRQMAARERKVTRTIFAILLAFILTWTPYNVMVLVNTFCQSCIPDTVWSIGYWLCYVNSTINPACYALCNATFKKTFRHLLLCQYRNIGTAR
Assay: mAChR M4 cell-based functional assay (calcium flux, potentiation of EC20 acetylcholine response), hM4-Gqi5 CHO-K1 cells
Settings: Table 3; potentiation of EC20 acetylcholine response, calcium flux, CHO-K1 cells; read-out: Human M4 EC50
Description: […] Calcium flux was measured using the Functional Drug Screening System (FDSS) 6000 or 7000 (Hamamatsu Corporation, Tokyo, Japan) as an increase in the fluorescent static ratio. […] Agonist activity was analyzed as a concentration-dependent increase in calcium mobilization upon compound addition. Positive allosteric modulator activity was analyzed as a concentration-dependent increase in the EC20 acetylcholine response. […]
pEC50: −log10 of the molar value.
quantityMeasured: pEC50

Worked examples follow.
[
  {
    "molecule": "Cc1cc2nncn2nc1N1CCc2ncc(Oc3cccc(F)c3F)cc2C1 [Compound 294]",
    "pEC50": 7.00
  },
  {
    "molecule": "Cc1ccc(-c2cnc3c(c2)CN(c2nn4c(C(F)(F)F)nnc4c(C)c2C)CC3)cn1 [Compound 256]",
    "pEC50": 6.60
  },
  {
    "molecule": "Cc1cnc2c(c1)CN(c1nn3cc(C(=O)N4CCCC4)nc3cc1C)CC2 [Compound 171]",
    "pEC50": 5.98
  },
  {
    "molecule": "Cc1c(N2CCc3ncc(OCc4ccccc4)cc3C2)nn2cnnc2c1C [Compound 265]",
    "pEC50": 6.14
  },
  {
    "molecule": "Cc1cc2nncn2nc1N1CCc2ncc(Nc3nn(C)c4ccccc34)cc2C1 [Compound 204]",
    "pEC50": 5.45
  },
  {
    "molecule": "Cc1cnc2c(c1)CN(c1nn3cc(C(=O)N4CCOCC4)nc3cc1C)CC2 [Compound 162]",
    "pEC50": 6.07
  },
  {
    "molecule": "COc1nc2c(cc1C)CN(c1nn3cnnc3c(C)c1C)CC2 [Compound 161]",
    "pEC50": 5.56
  },
  {
    "molecule": "Cc1cnn(C)c1-c1cnc2c(c1)CN(c1nn3c(C(F)(F)F)nnc3c(C)c1C)CC2 [Compound 236]",
    "pEC50": 6.78
  },
  {
    "molecule": "COc1nnc2c(C)c(C)c(N3CCc4ncc(C(F)(F)F)cc4C3)nn12 [Compound 270]",
    "pEC50": 6.77
  },
  {
    "molecule": "Cc1c(N2CCc3ncc(-c4cnc(Cl)c(F)c4)cc3C2)nn2cnnc2c1C [Compound 177]",
    "pEC50": 6.13
  }
]

P: Cc1c(N2CCc3ncc(N4CCC5(CC4)COC5)cc3C2)nn2c(C(F)(F)F)nnc2c1C [Compound 274]
Q: COc1ncc(F)cc1-c1cnc2c(c1)CN(c1nn3cnnc3c(C)c1C)CC2 [Compound 179]
Task: Just tell me: smaller pEC50 value, P or Q ? When you have decided, please share the label of that item.
Result: P
(P: 5.48, Q: 6.04)

1: Cc1cc2nncn2nc1N1CCc2ncc(-c3ccc(C4CC4)nc3)cc2C1 [Compound 197]
2: Cc1c(N2CCc3ncc(OCC(C)C)cc3C2)nn2cnnc2c1C [Compound 221]
Task: Could you point out whether the larger pEC50 belongs to 1 or to 2 ? Identify your pick by its label.
Result: 1
